# measuredTarget: ParB (Caulobacter crescentus) (UniProt B8GW30)
# Sequence: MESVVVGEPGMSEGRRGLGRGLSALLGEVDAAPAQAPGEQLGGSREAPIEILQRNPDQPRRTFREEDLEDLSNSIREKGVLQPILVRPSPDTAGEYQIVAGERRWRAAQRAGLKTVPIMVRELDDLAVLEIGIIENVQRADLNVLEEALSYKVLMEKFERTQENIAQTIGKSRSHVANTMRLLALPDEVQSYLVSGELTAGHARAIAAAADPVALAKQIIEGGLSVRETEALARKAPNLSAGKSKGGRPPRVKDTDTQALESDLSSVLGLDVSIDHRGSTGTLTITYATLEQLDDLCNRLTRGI
# assayComment: SPR
# conditionParameters: value assigned by figure order; SPR (ReDCaT, Biacore T200), HBS-EP+: 10 mM HEPES pH 7.4, 150 mM NaCl, 3 mM EDTA, 0.005% Surfactant P20, 25 C; ParB given as dimer
reportedEndpoint: Kd (µM)

INSERT INTO results (seqstring, measuredtarget, measvalue) VALUES
  ('CGATGTTTCCACGTGAAACAAGGC / GCCTTGTTTCACGTGGAAACATCGCCTACCCTACGTCCTCCTGC [parS site 7]', 'ParB (Caulobacter crescentus) (UniProt B8GW30)', 0.144);

----------
# measuredTarget: Spo0J (ParB) (Bacillus subtilis)
# Sequence: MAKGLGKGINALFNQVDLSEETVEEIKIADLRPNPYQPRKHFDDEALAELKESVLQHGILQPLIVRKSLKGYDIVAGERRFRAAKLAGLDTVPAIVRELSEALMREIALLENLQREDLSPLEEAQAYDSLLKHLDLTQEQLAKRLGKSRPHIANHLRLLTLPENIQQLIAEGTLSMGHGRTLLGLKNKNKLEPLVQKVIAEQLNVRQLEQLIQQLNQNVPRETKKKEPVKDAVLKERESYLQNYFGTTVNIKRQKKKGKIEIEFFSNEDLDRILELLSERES
# assayComment: SPR
# conditionParameters: apparent Kd; SPR (ReDCaT, Biacore T200), HBS-EP+: 10 mM HEPES pH 7.4, 150 mM NaCl, 3 mM EDTA, 0.005% Surfactant P20, 25 C; ParB given as dimer
pKd: −log10 of the molar value.
reportedEndpoint: pKd

INSERT INTO results (seqstring, measuredtarget, measvalue) VALUES
  ('AGAATGTTCCACGTGAAACAAAGA / TCTTTGTTTCACGTGGAACATTCTCCTACCCTACGTCCTCCTGC [B. subtilis parS 359]', 'Spo0J (ParB) (Bacillus subtilis)', 6.94);
